The measured values listed here are drawn from PubChem BioAssay (EPA / NIEHS).

# assay: BSK_CASM3C_SRB: Viability Assessment in the BioMAP Diversity Plus: CASM3C Assay (AID 2283050);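 further: total protein by SRB staining as cytotoxicity measure in parallel cultures; cells exposed to compound for 24 h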
# cond: primary human coronary artery smooth muscle cells
Active and inactive are the calls of the source. How the source made its calls: active means hit-call score of the fitted dose curve at least 0.9, where 1 is the maximum; inactive means score below 0.9.
Choose one outcome from this list and give only that: active, inactive

compound	class
CC(C)[C@H](C(=O)O[C@H](C#N)c1cccc(Oc2ccccc2)c1)c1ccc(Cl)cc1	inactive
CSc1nc(NC(C)C)nc(NC(C)C)n1	inactive
CC(C)N(C(=O)SCC(Cl)=C(Cl)Cl)C(C)C	active
Nc1nc(N)nc(NC2CC2)n1	inactive

I'd appreciate the recorded outcome for CC1=NNC(=O)N(/N=C/c2cccnc2)C1 from this test.
inactive

I'd appreciate the recorded outcome for CCOP(=S)(OCC)Oc1ccc([N+](=O)[O-])cc1 from this test.
inactive

###

# target.system: Androgen Receptor/SRC-1 Co-activator, AR (gene 367) (UniProt P10275)
# Sequence (P10275 whole entry, looked up): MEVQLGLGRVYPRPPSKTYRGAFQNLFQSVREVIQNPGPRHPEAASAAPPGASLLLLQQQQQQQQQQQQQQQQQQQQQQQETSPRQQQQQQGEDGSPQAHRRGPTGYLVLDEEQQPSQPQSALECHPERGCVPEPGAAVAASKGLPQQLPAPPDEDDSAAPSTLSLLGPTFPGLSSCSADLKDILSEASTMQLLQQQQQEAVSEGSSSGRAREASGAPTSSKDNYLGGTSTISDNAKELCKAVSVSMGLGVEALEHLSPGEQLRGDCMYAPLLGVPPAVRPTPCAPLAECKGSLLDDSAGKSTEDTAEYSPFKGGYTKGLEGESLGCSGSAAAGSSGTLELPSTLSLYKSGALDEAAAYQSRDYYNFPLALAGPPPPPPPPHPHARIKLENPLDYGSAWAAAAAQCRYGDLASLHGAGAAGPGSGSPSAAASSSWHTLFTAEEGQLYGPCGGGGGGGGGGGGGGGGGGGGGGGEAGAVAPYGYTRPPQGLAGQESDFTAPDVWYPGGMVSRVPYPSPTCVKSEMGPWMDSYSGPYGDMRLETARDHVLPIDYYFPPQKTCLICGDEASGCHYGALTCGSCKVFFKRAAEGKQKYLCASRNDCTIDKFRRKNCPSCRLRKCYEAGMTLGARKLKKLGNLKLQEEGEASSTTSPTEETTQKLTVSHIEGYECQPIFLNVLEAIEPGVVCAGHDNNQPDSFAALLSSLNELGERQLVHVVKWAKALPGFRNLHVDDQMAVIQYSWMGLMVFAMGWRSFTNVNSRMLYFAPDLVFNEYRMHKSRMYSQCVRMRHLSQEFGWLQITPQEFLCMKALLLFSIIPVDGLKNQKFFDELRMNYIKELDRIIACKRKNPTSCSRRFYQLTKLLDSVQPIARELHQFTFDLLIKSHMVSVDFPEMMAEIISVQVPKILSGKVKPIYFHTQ
# assay: OT_AR_ARSRC1_0480: Odyssey Thera (OT) 8-hour HEK293T Protein-Complementation Assay for Androgen Receptor/SRC-1 Co-activator (AID 2283354);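 further: hits raise the complementation signal above DMSO so AC50 marks enhancers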
Results filed as inconclusive are left out. Active and inactive are the calls of the source. How the source made its calls: active means hit-call score of the fitted dose curve at least 0.9, where 1 is the maximum; inconclusive means response in the unintended direction; inactive means score below 0.9.
Choose one outcome from this list and give only that: 1 (yes) for active, 0 (no) for inactive

compound	class
CCOC(=O)COc1cc(-c2nn(C)c(OC(F)F)c2Cl)c(F)cc1Cl	0 (no)
O=c1ccc(=O)[nH][nH]1	0 (no)
Nc1c(Cl)cc([N+](=O)[O-])cc1Cl	0 (no)
CCC(=O)Nc1ccc(Cl)c(Cl)c1	0 (no)
COP(=O)(OC)OC(Br)C(Cl)(Cl)Br (centres undefined)	0 (no)
N#CSCSC#N	1 (yes)

I'd appreciate the recorded outcome for COc1ccc(C(=CC(=O)N2CCOCC2)c2ccc(Cl)cc2)cc1OC from this test.
0 (no)

I'd appreciate the recorded outcome for C=C(C)[C@H]1Cc2c(ccc3c2O[C@@H]2COc4cc(OC)c(OC)cc4[C@@H]2C3=O)O1 from this test.
1 (yes)

I'd appreciate the recorded outcome for CCOP(=O)(NC(C)C)Oc1ccc(SC)c(C)c1 (centres undefined) from this test.
0 (no)

###

# target.system: frog Thyroid hormone Receptor alpha (TRa), thra-a (gene 397942)
# assay: ATG_frTRa_XSP2: Attagene TRANS-FACTORIAL Multi-Species (XSP2) HepG2 Assay for frog Thyroid hormone Receptor alpha (TRa) (AID 2283839)
Results filed as inconclusive are left out. The source made the active and inactive calls. How the source made its calls: active means hit-call score of the fitted dose curve at least 0.9, where 1 is the maximum; inconclusive means response in the unintended direction; inactive means score below 0.9.
Choose one outcome from this list and give only that: active, inactive

Please review the entries below; each comes with its answer.
compound	target.system	class
CCC(CC)Nc1c([N+](=O)[O-])cc(C)c(C)c1[N+](=O)[O-]	frog Thyroid hormone Receptor alpha (TRa), thra-a (gene 397942)	inactive
C#CC(C)(C)NC(=O)c1cc(Cl)cc(Cl)c1	frog Thyroid hormone Receptor alpha (TRa), thra-a (gene 397942)	active
CCOP(=O)(NC(C)C)Oc1ccc(SC)c(C)c1 (stereo not drawn)	frog Thyroid hormone Receptor alpha (TRa), thra-a (gene 397942)	inactive
C#CCC1=C(C)C(OC(=O)C2C(C=C(C)C)C2(C)C)CC1=O (stereo not drawn)	frog Thyroid hormone Receptor alpha (TRa), thra-a (gene 397942)	inactive
Nc1c(Cl)cc([N+](=O)[O-])cc1Cl	frog Thyroid hormone Receptor alpha (TRa), thra-a (gene 397942)	active
CCC(=O)Nc1ccc(Cl)c(Cl)c1	frog Thyroid hormone Receptor alpha (TRa), thra-a (gene 397942)	inactive
CCc1cccc(C)c1N(C(=O)CCl)C(C)COC (stereo not drawn)	frog Thyroid hormone Receptor alpha (TRa), thra-a (gene 397942)	inactive

Now let's try a different one.
I'd appreciate the recorded outcome for COc1ccc(C(=CC(=O)N2CCOCC2)c2ccc(Cl)cc2)cc1OC from this test.
inactive

###

# assay: CCTE_Mundy_HCI_Cortical_Synap_Neur_Matur_NeuriteSpotCountPerNeuriteLength: CCTE's Synaptogenesis and Neurite Maturation Assay in rat cortical cells for Neurite Spot Count per Neurite Length, Mundy Lab (AID 2284210)
Calls of active or inactive are those of the source. Rule for the calls: active = hit-call score of the fitted dose curve at least 0.9, where 1 is the maximum; inactive = score below 0.9.
Choose one outcome from this list and give only that: 1.0 = active, 0.0 = inactive

compound	class
CCCSP(=O)(OCC)SCCC	0.0
CCCSP(=O)(OCC)Oc1ccc(Br)cc1Cl (stereo not drawn)	0.0
C[N+]1(C)CCCCC1	0.0
CN1COCN(Cc2cnc(Cl)s2)C1=N[N+](=O)[O-]	0.0
CC1=NNC(=O)N(/N=C/c2cccnc2)C1	0.0
CN(C)[C@@H]1C(=O)C(C(N)=O)=C(O)[C@@]2(O)C(=O)C3=C(O)c4c(O)cccc4[C@@](C)(O)[C@H]3[C@H](O)[C@@H]12	1.0
COP(=O)(NC(C)=O)SC (stereo not drawn)	0.0
CON=C(C(=O)OC)c1ccccc1CON=C(C)c1cccc(C(F)(F)F)c1	1.0
CCOP(=S)(OCC)Oc1cc(C)nc(C(C)C)n1	0.0
CC(=NC#N)N(C)Cc1ccc(Cl)nc1	0.0

I'd appreciate the recorded outcome for O=[N+]([O-])c1cc(C(F)(F)F)c(Cl)c([N+](=O)[O-])c1Nc1ncc(C(F)(F)F)cc1Cl from this test.
1.0

I'd appreciate the recorded outcome for CCOC(=O)CC(SP(=O)(OC)OC)C(=O)OCC (stereo not drawn) from this test.
0.0

I'd appreciate the recorded outcome for CCOP(=S)(OCC)Oc1ccc([N+](=O)[O-])cc1 from this test.
1.0

###

# assay: ATG_TCF_b_cat_CIS: Attagene CIS-FACTORIAL HepG2 Assay for human T-Cell-Factor with beta-catenin (TCF/b-cat) (AID 2282965)
# cond: HepG2 TCF/beta-catenin cis-reporter transcription, actives raise or lower the signal
The source made the active and inactive calls. How the source made its calls: active means hit-call score of the fitted dose curve at least 0.9, where 1 is the maximum; inactive means score below 0.9.
Choose one outcome from this list and give only that: T = active, F = inactive

Please review the entries below; each comes with its answer.
molecule	class
CCOP(=S)(OCC)OC(Cl)C(Cl)(Cl)Cl (stereo unspecified)	F
N#CSCSC#N	F
CN1COCN(Cc2cnc(Cl)s2)C1=N[N+](=O)[O-]	F
S=C1NCCN1	F
COc1ccc(C(=CC(=O)N2CCOCC2)c2ccc(Cl)cc2)cc1OC	F

I'd appreciate the recorded outcome for CCOP(=S)(Oc1cnc(C(C)(C)C)nc1)OC(C)C (stereo unspecified) from this test.
F

I'd appreciate the recorded outcome for CC(C)=CC1C(C(=O)OCN2C(=O)C3=C(CCCC3)C2=O)C1(C)C (stereo unspecified) from this test.
F

I'd appreciate the recorded outcome for CCOP(=O)(OCC)Oc1cc(C)nc(C(C)C)n1 from this test.
F

I'd appreciate the recorded outcome for CCCSP(=O)(OCC)SCCC from this test.
F

I'd appreciate the recorded outcome for CCOP(=S)(OCC)Oc1cc(C)nc(C(C)C)n1 from this test.
F

I'd appreciate the recorded outcome for CCOP(=S)(OCC)Oc1ccc2c(C)c(Cl)c(=O)oc2c1 from this test.
F

I'd appreciate the recorded outcome for CC(C1CC1)C(O)(Cn1cncn1)c1ccc(Cl)cc1 (stereo unspecified) from this test.
F

I'd appreciate the recorded outcome for O=C(O)c1cc(Oc2ccc(C(F)(F)F)cc2Cl)ccc1[N+](=O)[O-] from this test.
F

I'd appreciate the recorded outcome for Cc1nn(-c2cc(NS(C)(=O)=O)c(Cl)cc2Cl)c(=O)n1C(F)F from this test.
F

I'd appreciate the recorded outcome for COP(=O)(OC)C(O)C(Cl)(Cl)Cl (stereo unspecified) from this test.
F

I'd appreciate the recorded outcome for C#CC(C)(C)NC(=O)c1cc(Cl)cc(Cl)c1 from this test.
F

I'd appreciate the recorded outcome for COP(=O)(OC)SCn1c(=O)oc2cc(Cl)cnc21 from this test.
T

I'd appreciate the recorded outcome for CSc1nc(NC(C)C)nc(NC(C)C)n1 from this test.
F

###

# Read-out: UDP glucuronosyltransferase (UGT1A1), UGT1A1 (gene 54658)
# assay: LTEA_HepaRG_UGT1A1: Life Technologies and Expression Analysis (LTEA) Assay for UDP glucuronosyltransferase (UGT1A1) using HepaRG (AID 2283538)
# cond: mRNA level, 48 h; actives raise or lower the signal
The source made the active and inactive calls. How the source made its calls: active means hit-call score of the fitted dose curve at least 0.9, where 1 is the maximum; inactive means score below 0.9.
Choose one outcome from this list and give only that: active, inactive

Please review the entries below; each comes with its answer.
molecule	class
CC(COc1ccc(Oc2ccccc2)cc1)Oc1ccccn1 (configuration not stated)	active
CCOP(=O)(OCC)Oc1cc(C)nc(C(C)C)n1	inactive

I'd appreciate the recorded outcome for O=C(O)c1cc(Oc2ccc(C(F)(F)F)cc2Cl)ccc1[N+](=O)[O-] from this test.
active

I'd appreciate the recorded outcome for COP(=O)(NC(C)=O)SC (configuration not stated) from this test.
inactive

I'd appreciate the recorded outcome for CN1COCN(Cc2cnc(Cl)s2)C1=N[N+](=O)[O-] from this test.
inactive

###

# assay: ATG_PPRE_CIS: Attagene CIS-FACTORIAL HepG2 Assay for human Peroxisome Proliferator-activated Response Element (PPRE) (AID 2282958)
# cond: HepG2 PPRE cis-element reporter, Attagene transcription factor profiling; actives raise or lower the signal
The source made the active and inactive calls. Rule for the calls: active = hit-call score of the fitted dose curve at least 0.9, where 1 is the maximum; inactive = score below 0.9.
Choose one outcome from this list and give only that: active, inactive

Please review the entries below; each comes with its answer.
molecule	class
CCOC(=O)CC(SP(=O)(OC)OC)C(=O)OCC (stereo unspecified)	active
CCCCN(CC)c1c([N+](=O)[O-])cc(C(F)(F)F)cc1[N+](=O)[O-]	inactive
CCOP(=O)(SC(C)CC)N1CCSC1=O (stereo unspecified)	inactive

I'd appreciate the recorded outcome for CCc1cnc(C2=NC(C)(C(C)C)C(=O)N2)c(C(=O)O)c1 (stereo unspecified) from this test.
inactive

I'd appreciate the recorded outcome for CCOC(=O)COc1cc(-c2nn(C)c(OC(F)F)c2Cl)c(F)cc1Cl from this test.
inactive

I'd appreciate the recorded outcome for CC1(C(=O)Nc2ccc(O)c(Cl)c2Cl)CCCCC1 from this test.
active
